Recorded values, source patent US20250100968A1.

# subject-of-test: human orexin type 2 receptor (hOX2R) (Homo sapiens, UniProt O43614)
# Sequence (O43614 1-444): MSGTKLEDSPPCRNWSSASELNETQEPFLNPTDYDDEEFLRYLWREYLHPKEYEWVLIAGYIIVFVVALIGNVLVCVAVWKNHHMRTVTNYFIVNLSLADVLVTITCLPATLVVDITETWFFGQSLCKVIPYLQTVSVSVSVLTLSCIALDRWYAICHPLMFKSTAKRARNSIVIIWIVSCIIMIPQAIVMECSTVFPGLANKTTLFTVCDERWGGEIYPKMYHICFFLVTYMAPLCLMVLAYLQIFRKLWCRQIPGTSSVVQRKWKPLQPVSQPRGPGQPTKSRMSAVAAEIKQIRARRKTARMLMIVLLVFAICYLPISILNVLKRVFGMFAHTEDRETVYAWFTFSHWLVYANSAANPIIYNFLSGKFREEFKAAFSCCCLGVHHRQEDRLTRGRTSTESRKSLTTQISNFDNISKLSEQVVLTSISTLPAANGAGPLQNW
# assay-info: cell-based;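 also: agonist activity in CHO cells stably expressing hOX2R, intracellular Ca2+ via Calcium 5 dye fluorescence area over 2 min, buffer-only as 0% and 10 nM orexin A as 100%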
pEC50: −log10 of the molar value.
Would you mind telling me the reported pEC50 of each entry?

q: Query: pEC50; subject: O=C(N1CC2(CC2)[C@H](NS(=O)(=O)CF)[C@@H]1Cc1cccc(-c2ccccc2)c1F)C1(CF)COC1
a: 8.00 to 9.00

q: Then what about the compound CC[C@@](C)(O)C(=O)N1CC2(CC2)[C@H](NS(=O)(=O)CF)[C@@H]1Cc1cccc(-c2cccc(F)c2)c1F ?
a: 9.00 to 10.20

q: Then what about the compound C[C@](O)(C(=O)N1CC2(CC2)[C@H](NS(=O)(=O)CF)[C@@H]1Cc1cc(F)cc(-c2ccccc2)c1F)C(F)F ?
a: 8.00 to 9.00

q: Then what about the compound N#C[C@@]1(C(=O)N2CC3(CC3)[C@H](NS(=O)(=O)CF)[C@@H]2Cc2cccc(-c3cc(F)ccc3F)c2F)CCO1 ?
a: 9.00 to 10.20

q: Then what about the compound CC(C)NC(=O)N1CC2(CC2)[C@H](NS(=O)(=O)CF)[C@@H]1Cc1cccc(-c2ccccc2)c1F ?
a: 8.00 to 9.00

q: Then what about the compound O=C(NCC(F)F)N1CC2(CC2)[C@H](NS(=O)(=O)C(F)F)[C@@H]1Cc1cccc(-c2cc(F)cc(F)c2)c1F ?
a: 9.00 to 10.20

q: Then what about the compound COCC1(C(=O)N2CC3(CC3)[C@H](NS(C)(=O)=O)[C@@H]2Cc2cccc(-c3ccccc3)c2F)CC1 ?
a: 9.00 to 10.20

q: Then what about the compound COC1CN(C(=O)N2CC3(CC3)[C@H](NS(=O)(=O)C(F)F)[C@@H]2Cc2cccc(-c3cc(F)cc(F)c3)c2F)C1 ?
a: 8.00 to 9.00

q: Then what about the compound C[C@@H](C#N)C(=O)N1CC2(CC2)[C@H](NS(=O)(=O)C(F)F)[C@@H]1Cc1cccc(-c2ccccc2)c1F ?
a: 8.00 to 9.00

q: Then what about the compound C[C@H](CF)NC(=O)N1CC2(CC2)[C@H](NS(=O)(=O)CF)[C@@H]1Cc1cccc(-c2cc(F)cc(F)c2)c1F ?
a: 9.00 to 10.20

q: Then what about the compound N#C[C@]1(C(=O)N2CC3(CC3)[C@H](NS(=O)(=O)CF)[C@@H]2Cc2cccc(-c3cc(F)ccc3F)c2F)CCO1 ?
a: 9.00 to 10.20

q: Then what about the compound C[C@@H](NC(=O)N1CC2(CC2)[C@H](NS(=O)(=O)C(F)F)[C@@H]1Cc1cccc(-c2cc(F)cc(F)c2)c1F)C(F)F ?
a: 8.00 to 9.00

q: Then what about the compound COC[C@@H](F)C(=O)N1CC2(CC2)[C@H](NS(=O)(=O)C(F)F)[C@@H]1Cc1cccc(-c2cc(F)cc(F)c2)c1F ?
a: 8.00 to 9.00

q: Then what about the compound O=C(NCC(F)F)N1CC2(CC2)[C@H](NS(=O)(=O)C(F)F)[C@@H]1Cc1cc(F)cc(-c2cc(F)cc(F)c2)c1F ?
a: 9.00 to 10.20

q: Then what about the compound C[C@@H](F)S(=O)(=O)N[C@@H]1[C@H](Cc2cc(F)cc(-c3ccccc3)c2F)N(C(=O)[C@H]2CCO2)CC12CC2 ?
a: 8.00 to 9.00

q: Then what about the compound C[C@@H](C#N)C(=O)N1CC2(CC2)[C@H](NS(=O)(=O)CF)[C@@H]1Cc1cccc(-c2cc(F)cc(F)c2)c1F ?
a: 8.00 to 9.00

q: Then what about the compound C[C@@H](C#N)C(=O)N1CC2(CC2)[C@H](NS(=O)(=O)C(F)F)[C@@H]1Cc1cccc(-c2cc(F)cc(F)c2)c1F ?
a: 8.00 to 9.00

q: Then what about the compound C[C@@](O)(C(=O)N1CC2(CC2)[C@H](NS(=O)(=O)C(F)F)[C@@H]1Cc1cccc(-c2ccccc2)c1F)C1CC1 ?
a: 8.00 to 9.00

q: Then what about the compound C[C@@H](F)C(=O)N1CC2(CC2)[C@H](NS(=O)(=O)C(F)F)[C@@H]1Cc1cccc(-c2cc(F)cc(F)c2)c1F ?
a: 8.00 to 9.00

q: Then what about the compound N#CC1(C(=O)N2CC3(CC3)[C@H](NS(=O)(=O)CF)[C@@H]2Cc2cc(F)cc(-c3ccccc3)c2F)CCC1 ?
a: 9.00 to 10.20

q: Then what about the compound O=C(C(O)CF)N1CC2(CC2)[C@H](NS(=O)(=O)C(F)F)[C@@H]1Cc1cccc(-c2cccc(F)c2)c1F (mixture of isomers) ?
a: 9.00 to 10.20

q: Then what about the compound O=C([C@@H](O)C1CC1)N1CC2(CC2)[C@H](NS(=O)(=O)C(F)F)[C@@H]1Cc1cc(F)cc(-c2ccccc2)c1F ?
a: 9.00 to 10.20

q: Then what about the compound CC(F)(F)CNC(=O)N1CC2(CC2)[C@H](NS(=O)(=O)C(F)F)[C@@H]1Cc1cccc(-c2cc(F)cc(F)c2)c1F ?
a: 8.00 to 9.00

q: Then what about the compound O=C([C@H]1CCO1)N1CC2(CC2)[C@H](NS(=O)(=O)C2(F)CC2)[C@@H]1Cc1cccc(-c2cc(F)cc(F)c2)c1F ?
a: 9.00 to 10.20

q: Then what about the compound O=C([C@@H](O)C1CC1)N1CC2(CC2)[C@H](NS(=O)(=O)C(F)F)[C@@H]1Cc1cccc(-c2cc(F)cc(F)c2)c1F ?
a: 8.00 to 9.00

q: Then what about the compound C[C@@H](F)S(=O)(=O)N[C@@H]1[C@H](Cc2cccc(-c3cc(F)cc(F)c3)c2F)N(C(=O)C2CCO2)CC12CC2 (mixture of isomers) ?
a: 8.00 to 9.00

* * *

Would you mind telling me the reported EC50 of each entry?
# subject-of-test: human orexin type 2 receptor (hOX2R) (Homo sapiens, UniProt O43614)
# assay-info: cell-based

q: Query: EC50; subject: N#C[C@]1(C(=O)N2CC3(CC3)[C@H](NS(=O)(=O)CF)[C@@H]2Cc2cccc(-c3ccccc3)c2F)C[C@H](F)C1 [compound 54]
a: 0.0631 to 1 nM

q: Then what about the compound N#C[C@]1(C(=O)N2CC3(CC3)[C@H](NS(=O)(=O)CF)[C@@H]2Cc2cc(F)cc(-c3ccccc3)c2F)C[C@@H](F)C1 [compound 90] ?
a: 1 to 10 nM

q: Then what about the compound N#C[C@]1(C(=O)N2CC3(CC3)[C@H](NS(=O)(=O)CF)[C@@H]2Cc2cccc(-c3cccc(F)c3)c2F)CCO1 [compound 46] ?
a: 1 to 10 nM

q: Then what about the compound O=C([C@H](O)CF)N1CC2(CC2)[C@H](NS(=O)(=O)CF)[C@@H]1Cc1cccc(-c2cc(F)cc(F)c2)c1F [compound 23] ?
a: 1 to 10 nM

q: Then what about the compound C[C@H](C#N)C(=O)N1CC2(CC2)[C@H](NS(=O)(=O)C(F)F)[C@@H]1Cc1cccc(-c2ccccc2)c1F [compound 40] ?
a: 1 to 10 nM

q: Then what about the compound C[C@H](C#N)C(=O)N1CC2(CC2)[C@H](NS(=O)(=O)C(F)F)[C@@H]1Cc1cccc(-c2cc(F)cc(F)c2)c1F [compound 49] ?
a: 1 to 10 nM

q: Then what about the compound O=C([C@H](O)CF)N1CC2(CC2)[C@H](NS(=O)(=O)C(F)F)[C@@H]1Cc1cccc(-c2cc(F)cc(F)c2)c1F [compound 8] ?
a: 1 to 10 nM

q: Then what about the compound N#CC1(C(=O)N2CC3(CC3)[C@H](NS(=O)(=O)CF)[C@@H]2Cc2cc(F)cc(-c3ccccc3)c2F)CC1 [compound 76] ?
a: 0.0631 to 1 nM

q: Then what about the compound CC(C)(F)CNC(=O)N1CC2(CC2)[C@H](NS(=O)(=O)CF)[C@@H]1Cc1cccc(-c2cc(F)cc(F)c2)c1F [compound 37] ?
a: 1 to 10 nM

q: Then what about the compound N#CC1(C(=O)N2CC3(CC3)[C@H](NS(=O)(=O)CF)[C@@H]2Cc2cccc(-c3ccccc3)c2F)COC1 [compound 34] ?
a: 0.0631 to 1 nM

q: Then what about the compound N#C[C@@]1(C(=O)N2CC3(CC3)[C@H](NS(=O)(=O)CF)[C@@H]2Cc2cccc(-c3cccc(F)c3)c2F)CCO1 [compound 45] ?
a: 1 to 10 nM

q: Then what about the compound COC1CN(C(=O)N2CC3(CC3)[C@H](NS(=O)(=O)CF)[C@@H]2Cc2cc(F)cc(-c3ccccc3)c2F)C1 [compound 59] ?
a: 1 to 10 nM

q: Then what about the compound C[C@H](F)S(=O)(=O)N[C@@H]1[C@H](Cc2cc(F)cc(-c3cc(F)cc(F)c3)c2F)N(C(=O)[C@H]2CCO2)CC12CC2 [compound 58] ?
a: 1 to 10 nM

q: Then what about the compound C[C@H](CF)NC(=O)N1CC2(CC2)[C@H](NS(=O)(=O)C2(F)CC2)[C@@H]1Cc1cccc(-c2ccccc2)c1F [compound 86] ?
a: 0.0631 to 1 nM

q: Then what about the compound N#C[C@]1(C(=O)N2CC3(CC3)[C@H](NS(=O)(=O)CF)[C@@H]2Cc2cc(F)cc(-c3ccccc3)c2F)C[C@H](F)C1 [compound 89] ?
a: 1 to 10 nM

q: Then what about the compound C[C@@H](NC(=O)N1CC2(CC2)[C@H](NS(=O)(=O)CF)[C@@H]1Cc1cc(F)cc(-c2ccccc2)c1F)C(F)F [compound 88] ?
a: 1 to 10 nM

q: Then what about the compound O=C([C@H]1CCCO1)N1CC2(CC2)[C@H](NS(=O)(=O)C(F)F)[C@@H]1Cc1cccc(-c2cc(F)cc(F)c2)c1F [compound 50] ?
a: 1 to 10 nM

q: Then what about the compound CC(C)S(=O)(=O)N[C@@H]1[C@H](Cc2cc(F)cc(-c3cc(F)cc(F)c3)c2F)N(C(=O)[C@H]2CCO2)CC12CC2 [compound 20] ?
a: 0.0631 to 1 nM

q: Then what about the compound C[C@](O)(CF)C(=O)N1CC2(CC2)[C@H](NS(=O)(=O)C2(F)CC2)[C@@H]1Cc1cccc(-c2ccccc2)c1F [compound 91] ?
a: 0.0631 to 1 nM

q: Then what about the compound C[C@@](O)(CF)C(=O)N1CC2(CC2)[C@H](NS(=O)(=O)C(F)F)[C@@H]1Cc1cccc(-c2cc(F)cc(F)c2)c1F [compound 1] ?
a: 1 to 10 nM

q: Then what about the compound C[C@H](C#N)C(=O)N1CC2(CC2)[C@H](NS(=O)(=O)CF)[C@@H]1Cc1cccc(-c2cc(F)cc(F)c2)c1F [compound 62] ?
a: 1 to 10 nM

q: Then what about the compound CC(F)(F)CNC(=O)N1CC2(CC2)[C@H](NS(=O)(=O)CF)[C@@H]1Cc1cc(F)cc(-c2ccccc2)c1F [compound 74] ?
a: 1 to 10 nM

q: Then what about the compound O=C(NCC(F)F)N1CC2(CC2)[C@H](NS(=O)(=O)CF)[C@@H]1Cc1cccc(-c2cc(F)cc(F)c2)c1F [compound 15] ?
a: 1 to 10 nM

q: Then what about the compound O=C([C@@H](O)C1CC1)N1CC2(CC2)[C@H](NS(=O)(=O)CF)[C@@H]1Cc1cccc(-c2cc(F)cc(F)c2)c1F [compound 3] ?
a: 10 to 100 nM

q: Then what about the compound CO[C@@H](C)C(=O)N1CC2(CC2)[C@H](NS(=O)(=O)C(F)F)[C@@H]1Cc1cccc(-c2cc(F)cc(F)c2)c1F [compound 65] ?
a: 1 to 10 nM

q: Then what about the compound N#C[C@]1(C(=O)N2CC3(CC3)[C@H](NS(=O)(=O)C(F)F)[C@@H]2Cc2cccc(-c3cc(F)cc(F)c3)c2F)CCO1 [compound 48] ?
a: 0.0631 to 1 nM
